Task for the reader: assign each of the following binders its reported IC50, microneutralization of GP-pseudotyped lentiviral vector on HEK293 cells.
Molecular target: T1, SUDV GP on pseudotyped lentiviral vector (Sudan virus (SUDV), UniProt Q7T9D9 33-676)
T1 sequence: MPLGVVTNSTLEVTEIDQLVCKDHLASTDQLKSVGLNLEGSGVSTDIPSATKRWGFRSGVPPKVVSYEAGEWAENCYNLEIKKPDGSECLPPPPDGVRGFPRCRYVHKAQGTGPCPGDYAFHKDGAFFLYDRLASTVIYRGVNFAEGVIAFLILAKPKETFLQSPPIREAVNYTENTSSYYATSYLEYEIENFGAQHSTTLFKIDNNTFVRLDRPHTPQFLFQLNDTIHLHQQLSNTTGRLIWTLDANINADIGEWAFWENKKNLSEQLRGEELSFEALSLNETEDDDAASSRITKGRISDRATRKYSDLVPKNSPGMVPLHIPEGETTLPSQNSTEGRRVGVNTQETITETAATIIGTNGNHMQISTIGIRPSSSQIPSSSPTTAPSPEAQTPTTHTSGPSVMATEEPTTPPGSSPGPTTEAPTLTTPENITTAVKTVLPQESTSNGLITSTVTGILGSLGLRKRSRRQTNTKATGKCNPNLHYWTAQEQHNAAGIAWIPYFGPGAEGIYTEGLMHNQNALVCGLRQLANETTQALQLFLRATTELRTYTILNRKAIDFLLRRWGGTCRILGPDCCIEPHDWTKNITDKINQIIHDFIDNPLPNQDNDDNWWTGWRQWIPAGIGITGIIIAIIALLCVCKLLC
Assay: cell-based or functional assay
Please reply with the bare figure in µg/mL and do not write the unit itself.

Request: // lookup IC50, microneutralization of GP-pseudotyped lentiviral vector on HEK293 cells for antibody 405S (antibody, V domains shown) VH: EVQLVESGGGLIQPGGSLRLSCAASGFTVSSHYMSWVRQAPGKGLEWVSGIYSGGRTHYADSVKGRFTISRDNSKNTLYLQMNSLRADDTAVYSCARGTLLYLYGMDVWGQGTTVTVSS VL: QSVLTQPPSVSAAPGQRVTISCTGSSSNIGAGYNVHWYQQLPGAAPKLLIYGNTNRPSGVPDRFSGSKSGTSASLAITGLQAEDEADYYCQSFDSSLSGVFGTGTKVTVL
Response: 0.79

Request: // lookup IC50, microneutralization of GP-pseudotyped lentiviral vector on HEK293 cells for antibody 382S (antibody, V domains shown) VH: QVQLVQSGAEVKKPGSSVKVSCKASGGTFSNYGISWVRQAPGQGLEWMGRNIPIIGIANYAQKFQDRVTITADKSTSTVFMELRSLRYEDTAVYYCARDPLAARRGNWFDPWGQGTLVTVSS VL: DIQMTQSPSTLSASVGDRVTITCRASQSVSSWLAWYQQKPGKAPKLLIYDASTLQSGVPSRFSGSGSGTEFTLTISSLQPDDFATYYCQQYNSYSYTFGQGTKLEIK
Response: 0.71

Request: // lookup IC50, microneutralization of GP-pseudotyped lentiviral vector on HEK293 cells for antibody 578S (antibody, V domains shown) VH: EVQLVESGGGVVQPGRSLRLSCAASGFTFSSYELHWVRQAPGKGLEWVAVISYDGSSKYYADSLKGRFTISRDNSKNTLSLQMNSLRAEDTAMYYCVRQSEAYCSDGRCDWRRALDIWGQGTMVTVSP VL: DIQMTQSPSSLSASVGDRVTITCQASQDIKNYLNWYQQKPGKAPKLLIYDVSKLETGVPSRFSGSGSGTDFSFTISSLQPEDIATYYCQQYDNLPSYTFGQGTKLEIK
Response: 1.09
